- Test system: HepG-2 human hepatocellular carcinoma cells
- test-description: MTT assay, proliferation of HepG-2 cells
- Format: cell-based
- settings: Homo sapiens, HepG2, 72 h incubation, mean of three independent experiments
- Method: HepG-2 human hepatocellular carcinoma cells and L-O2 human normal liver cells were maintained in DMEM culture medium supplemented with 10% FBS at 37 °C under a humidified atmosphere with 5% CO2. HepG-2 and L-O2 cells in logarithmic growth phase were seeded into a 96-well plate at 5 × 10^3/well/200 µL. […] The absorbance of the optical density (OD) at 570 nm was detected using a microplate reader and the IC50 was calculated with GraphPad Prism 5.
measure: IC50 (nM)
Field format: number, assumed nM, no unit text.

# IC50 lookup, item CC(=O)OC(C)(C)/C=C/C(=O)[C@](C)(O)C1[C@H](OC(=O)CCC(=O)OCCCCCCCCOc2no[n+]([O-])c2S(=O)(=O)c2ccccc2)C[C@@]2(C)C3CC=C4C(CC(O)C(=O)C4(C)C)[C@]3(C)C(=O)C[C@]12C (stereo partly shown) [Compound 10g] 1190

Field entry: CC(=O)OC(C)(C)/C=C/C(=O)[C@](C)(O)C1[C@H](OC(=O)CCC(=O)OCC#CCOc2no[n+]([O-])c2S(=O)(=O)c2ccccc2)C[C@@]2(C)C3CC=C4C(CC(O)C(=O)C4(C)C)[C@]3(C)C(=O)C[C@]12C (stereo partly shown) [Compound 10m] 1350

Please answer likewise for CC(=O)OC(C)(C)/C=C/C(=O)[C@](C)(O)C1[C@H](OC(=O)CCC(=O)OCCCCCCCCCOc2no[n+]([O-])c2S(=O)(=O)c2ccccc2)C[C@@]2(C)C3CC=C4C(CC(O)C(=O)C4(C)C)[C@]3(C)C(=O)C[C@]12C (stereo partly shown) [Compound 10h] 1150

Next molecule: CC(=O)OC(C)(C)/C=C/C(=O)[C@](C)(O)C1[C@H](OC(=O)CCC(=O)OCCCOc2no[n+]([O-])c2S(=O)(=O)c2ccccc2)C[C@@]2(C)C3CC=C4C(CC(O)C(=O)C4(C)C)[C@]3(C)C(=O)C[C@]12C (stereo partly shown) [Compound 10b] 630

* * *

- System: HepG-2 human hepatocellular carcinoma cells
- test-description: MTT assay, proliferation of HepG-2 cells
- Type: cell-based
- settings: Homo sapiens, HepG2, 72 h incubation, mean of three independent experiments
Can you tell me pIC50 for the items I'm about to list?
By convention, pIC50 is the negative base-10 log of a molar concentration.

Give the measured pIC50 of CC(=O)OC(C)(C)/C=C/C(=O)[C@](C)(O)C1[C@H](OC(=O)CCC(=O)OCCCCCCCOc2no[n+]([O-])c2S(=O)(=O)c2ccccc2)C[C@@]2(C)C3CC=C4C(CC(O)C(=O)C4(C)C)[C@]3(C)C(=O)C[C@]12C (stereo partly shown) [Compound 10f] . 6.08

Proceed to CC(=O)OC(C)(C)/C=C/C(=O)[C@](C)(O)C1[C@H](OC(=O)CCC(=O)OCCCCCCCCCCOc2no[n+]([O-])c2S(=O)(=O)c2ccccc2)C[C@@]2(C)C3CC=C4C(CC(O)C(=O)C4(C)C)[C@]3(C)C(=O)C[C@]12C (stereo partly shown) [Compound 10i] 5.16

Let us now turn to CC(=O)OC(C)(C)/C=C/C(=O)[C@](C)(O)C1[C@H](OC(=O)CCC(=O)OCc2ccc(COc3no[n+]([O-])c3S(=O)(=O)c3ccccc3)cc2)C[C@@]2(C)C3CC=C4C(CC(O)C(=O)C4(C)C)[C@]3(C)C(=O)C[C@]12C (stereo partly shown) [Compound 10o] 5.99

* * *

- System: HepG-2 human hepatocellular carcinoma cells
- test-description: MTT assay, proliferation of HepG-2 cells
- Assay type: cell-based
- settings: Homo sapiens, HepG2, 72 h incubation, mean of three independent experiments
Provide the recorded IC50 for the entries that follow.
Response body: numeric value in nM, unit text excluded.

Write down the reported IC50 of COc1ccc(C(=O)O[C@@H]2C[C@@]3(C)C4CC=C5C(C[C@H](O)C(=O)C5(C)C)[C@]4(C)C(=O)C[C@]3(C)C2[C@@](C)(O)C(=O)/C=C/C(C)(C)OC(C)=O)cc1 (some centres unmarked) [Compound 3l] , test system: HepG-2 human hepatocellular carcinoma cells. 3710

Request: CC(=O)OC(C)(C)/C=C/C(=O)[C@](C)(O)C1[C@H](OC(=O)/C=C/c2ccc(C#N)cc2)C[C@@]2(C)C3CC=C4C(C[C@H](O)C(=O)C4(C)C)[C@]3(C)C(=O)C[C@]12C (some centres unmarked) [Compound 3p] 2340

Please give the result for CC(=O)OC(C)(C)/C=C/C(=O)[C@](C)(O)C1[C@H](OC(=O)C2CCCC2)C[C@@]2(C)C3CC=C4C(C[C@H](O)C(=O)C4(C)C)[C@]3(C)C(=O)C[C@]12C (some centres unmarked) [Compound 3c] too. 2450

Another molecule to check: CC(=O)OC(C)(C)/C=C/C(=O)[C@](C)(O)C1[C@H](OC(=O)CCC(=O)N2CCN(CCOc3no[n+]([O-])c3S(=O)(=O)c3ccccc3)CC2)C[C@@]2(C)C3CC=C4C(CC(O)C(=O)C4(C)C)[C@]3(C)C(=O)C[C@]12C (some centres unmarked) [Compound 9c] 920

Next record, please: CC(=O)OC(C)(C)C=CC(=O)C(C)(O)C1C(OC(=O)CCC(=O)NCCOc2no[n+]([O-])c2S(=O)(=O)c2ccccc2)CC2(C)C3CC=C4C(CC(O)C(=O)C4(C)C)C3(C)C(=O)CC12C (centres unmarked) [Compound 9a] 460

* * *

- Test system: HepG-2 human hepatocellular carcinoma cells
- test-description: MTT assay, proliferation of HepG-2 cells
- Type: cell-based
- settings: Homo sapiens, HepG2, 72 h incubation, mean of three independent experiments
measure: pIC50
// field semantics: pIC50 = negative decimal log of concentration (mol/L)

Lab note: need pIC50 with HepG-2 human hepatocellular carcinoma cells for entry CC(=O)OC(C)(C)/C=C/C(=O)[C@](C)(O)C1[C@H](OC(=O)CCC(=O)OCCCCOc2no[n+]([O-])c2S(=O)(=O)c2ccccc2)C[C@@]2(C)C3CC=C4C(CC(O)C(=O)C4(C)C)[C@]3(C)C(=O)C[C@]12C (stereo partly shown) [Compound 10c] , please look it up. 6.28

What about CC(=O)OC(C)(C)/C=C/C(=O)[C@](C)(O)C1[C@H](OC(=O)CCC(=O)OCCOc2no[n+]([O-])c2S(=O)(=O)c2ccccc2)C[C@@]2(C)C3CC=C4C(CC(O)C(=O)C4(C)C)[C@]3(C)C(=O)C[C@]12C (stereo partly shown) [Compound 10a] ? 6.09

And the next one, CC(=O)OC(C)(C)/C=C/C(=O)[C@](C)(O)C1[C@H](OC(=O)CCCN(C)C(=O)OC(C)(C)C)C[C@@]2(C)C3CC=C4C(C[C@H](O)C(=O)C4(C)C)[C@]3(C)C(=O)C[C@]12C (stereo partly shown) ? 6.03

How about this compound: COc1cccc2c1C(=O)c1c(O)c3c(c(O)c1C2=O)C[C@@](O)(C(=O)CO)C[C@@H]3O[C@H]1C[C@H](N)[C@H](O)[C@H](C)O1 [ADR, adriamycin, reference compound] 6.52

* * *

Consider the following compounds; for each one, report its IC50.
- Tested on: HepG-2 human hepatocellular carcinoma cells
- test-description: MTT assay, proliferation of HepG-2 cells
- Format: cell-based
- settings: Homo sapiens, HepG2, 72 h incubation, mean of three independent experiments
Record the value in nM, omitting the unit from your answer.

Using the record for CC(=O)OC(C)(C)/C=C/C(=O)[C@](C)(O)C1[C@H](OC(=O)c2ccc(F)cc2)C[C@@]2(C)C3CC=C4C(C[C@H](O)C(=O)C4(C)C)[C@]3(C)C(=O)C[C@]12C (stereo partly drawn) , report its IC50. 7420

Try this compound too: CC(=O)OC(C)(C)/C=C/C(=O)[C@](C)(O)C1[C@H](OC(=O)c2ccc(Cl)cc2)C[C@@]2(C)C3CC=C4C(C[C@H](O)C(=O)C4(C)C)[C@]3(C)C(=O)C[C@]12C (stereo partly drawn) 4670

// repeat for CC(=O)OC(C)(C)/C=C/C(=O)[C@](C)(O)C1[C@H](OC(=O)C=Cc2ccccc2)C[C@@]2(C)C3CC=C4C(C[C@H](O)C(=O)C4(C)C)[C@]3(C)C(=O)C[C@]12C (stereo partly drawn) and report 3310

Same again, this time with CC(=O)OC(C)(C)/C=C/C(=O)[C@](C)(O)C1[C@H](OC(=O)CCC(=O)OCCCCCCOc2no[n+]([O-])c2S(=O)(=O)c2ccccc2)C[C@@]2(C)C3CC=C4C(CC(O)C(=O)C4(C)C)[C@]3(C)C(=O)C[C@]12C (stereo partly drawn) [Compound 10e] 1150

Item: CC(=O)OC(C)(C)/C=C/C(=O)[C@](C)(O)C1[C@H](OC(=O)CCC(=O)NCCCOc2no[n+]([O-])c2S(=O)(=O)c2ccccc2)C[C@@]2(C)C3CC=C4C(CC(O)C(=O)C4(C)C)[C@]3(C)C(=O)C[C@]12C (stereo partly drawn) 530

Entry to check: CC(=O)OC(C)(C)/C=C/C(=O)[C@](C)(O)C1[C@H](OC(=O)CCC(=O)OCC(C)(C)COc2no[n+]([O-])c2S(=O)(=O)c2ccccc2)C[C@@]2(C)C3CC=C4C(CC(O)C(=O)C4(C)C)[C@]3(C)C(=O)C[C@]12C (stereo partly drawn) [Compound 10n] 1110

// same read-out, input: CC(=O)OC(C)(C)/C=C/C(=O)[C@](C)(O)C1[C@H](OC(=O)C2CCC2)C[C@@]2(C)C3CC=C4C(CC(O)C(=O)C4(C)C)[C@]3(C)C(=O)C[C@]12C (stereo partly drawn) 540

Now give it for CC(=O)OC(C)(C)/C=C/C(=O)[C@](C)(O)C1[C@H](OC(=O)CCc2ccccc2NC(=O)OC(C)(C)C)C[C@@]2(C)C3CC=C4C(C[C@H](O)C(=O)C4(C)C)[C@]3(C)C(=O)C[C@]12C (stereo partly drawn) too. 220

Okay, and CC(=O)OC(C)(C)/C=C/C(=O)[C@](C)(O)C1[C@H](OC(=O)CCC(=O)OC/C=C/COc2no[n+]([O-])c2S(=O)(=O)c2ccccc2)C[C@@]2(C)C3CC=C4C(CC(O)C(=O)C4(C)C)[C@]3(C)C(=O)C[C@]12C (stereo partly drawn) [Compound 10l] ? 1010

Then this compound: CC(=O)OC(C)(C)/C=C/C(=O)[C@](C)(O)C1[C@H](OC(=O)c2cccc(F)c2)C[C@@]2(C)C3CC=C4C(C[C@H](O)C(=O)C4(C)C)[C@]3(C)C(=O)C[C@]12C (stereo partly drawn) 4050

Same thing, different compound: COc1cc(/C=C/C(=O)O[C@@H]2C[C@@]3(C)C4CC=C5C(C[C@H](O)C(=O)C5(C)C)[C@]4(C)C(=O)C[C@]3(C)C2[C@@](C)(O)C(=O)/C=C/C(C)(C)OC(C)=O)cc(OC)c1 (stereo partly drawn) 3850

Note, next up: CC(=O)OC(C)(C)/C=C/C(=O)[C@](C)(O)C1[C@H](OC(=O)c2ccc([N+](=O)[O-])cc2)C[C@@]2(C)C3CC=C4C(C[C@H](O)C(=O)C4(C)C)[C@]3(C)C(=O)C[C@]12C (stereo partly drawn) 920

// repeat for CC(=O)OC(C)(C)/C=C/C(=O)[C@](C)(O)C1[C@H](OC(=O)CCC(=O)OCCCCCOc2no[n+]([O-])c2S(=O)(=O)c2ccccc2)C[C@@]2(C)C3CC=C4C(CC(O)C(=O)C4(C)C)[C@]3(C)C(=O)C[C@]12C (stereo partly drawn) [Compound 10d] and report 640

Moving on to the next compound: CC(=O)OC(C)(C)/C=C/C(=O)[C@](C)(O)C1[C@H](OC(=O)CCCCN(C)C(=O)OC(C)(C)C)C[C@@]2(C)C3CC=C4C(C[C@H](O)C(=O)C4(C)C)[C@]3(C)C(=O)C[C@]12C (stereo partly drawn) 9280

Also check CCC(=O)O[C@@H]1C[C@@]2(C)C3CC=C4C(C[C@H](O)C(=O)C4(C)C)[C@]3(C)C(=O)C[C@]2(C)C1[C@@](C)(O)C(=O)/C=C/C(C)(C)OC(C)=O (stereo partly drawn) 1010

What do you get for CC(=O)OC(C)(C)/C=C/C(=O)[C@](C)(O)C1[C@H](OC(=O)c2ccc(Br)cc2)C[C@@]2(C)C3CC=C4C(C[C@H](O)C(=O)C4(C)C)[C@]3(C)C(=O)C[C@]12C (stereo partly drawn) ? 2990
